# Measured target: recombinant human KLK5 (Homo sapiens, UniProt Q9Y337)
# Sequence (Q9Y337 23-293): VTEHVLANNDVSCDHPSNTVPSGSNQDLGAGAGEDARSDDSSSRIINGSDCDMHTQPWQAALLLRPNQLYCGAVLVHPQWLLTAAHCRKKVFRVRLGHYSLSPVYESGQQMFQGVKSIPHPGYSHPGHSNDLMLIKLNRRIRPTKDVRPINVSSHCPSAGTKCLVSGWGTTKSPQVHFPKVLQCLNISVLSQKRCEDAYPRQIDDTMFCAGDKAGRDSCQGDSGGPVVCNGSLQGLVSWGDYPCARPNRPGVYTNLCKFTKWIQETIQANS
# Test name: Kallikrein (KLK) 5 enzymatic assay (Boc-VPR-AMC fluorogenic substrate)
# Reported conditions: recombinant human KLK5 0.1 μg/well, Boc-VPR-AMC 100 μM, pH 7.5, room temperature, 1% DMSO; tested a minimum of three times
Readout kind: IC50

Consider the reported IC50 for these compounds:
compound="CCOC(=O)N1CCC2(CC1)CC(Oc1ccccc1CC(=O)O)c1cc(-c3ccc4ccnc(N)c4c3)ccc12 (stereo not shown) [Compound 349d]" measured_target="recombinant human KLK5 (Homo sapiens, UniProt Q9Y337)" readout_kind=IC50 observed="< 1000 nM"
compound="COC(=O)N1CCC2(CC1)CC(Oc1cc(OC)ccc1CC(=O)O)c1cc(-c3ccc4ccnc(N)c4c3)ccc12 (stereo not shown) [Compound 452c]" measured_target="recombinant human KLK5 (Homo sapiens, UniProt Q9Y337)" readout_kind=IC50 observed="< 1000 nM"
compound="Nc1nccc2ccc(-c3ccc4c(c3)c(Cn3ccc5cccc(C(=O)O)c53)nn4C3CCOC3)cc12 (stereo not shown) [Compound 275b]" measured_target="recombinant human KLK5 (Homo sapiens, UniProt Q9Y337)" readout_kind=IC50 observed="> 10000 nM"
compound="COc1c(-c2ccc3c(c2)c(COc2ccccc2CC(=O)O)nn3C2CCC2)ccnc1CN [Compound 328d]" measured_target="recombinant human KLK5 (Homo sapiens, UniProt Q9Y337)" readout_kind=IC50 observed="1000 to 10000 nM"
compound="Nc1nccc2ccc(-c3ccc4c(c3)c(COc3ccccc3CC(=O)O)nn4C3CCCCO3)cc12 (stereo not shown) [Compound 93b]" measured_target="recombinant human KLK5 (Homo sapiens, UniProt Q9Y337)" readout_kind=IC50 observed="< 1000 nM"
compound="COc1c(C(=N)N)cccc1-c1ccc2c(c1)c(COc1ccccc1CC(=O)O)nn2CC1CCC1 [Compound 255d]" measured_target="recombinant human KLK5 (Homo sapiens, UniProt Q9Y337)" readout_kind=IC50 observed="< 1000 nM"

Note: attention shifts to another entry.
# COc1cc(-c2cccc(C(=N)N)c2)cc2c(COc3ccccc3CC(=O)O)coc12 [Compound 236b] with recombinant human KLK5 (Homo sapiens, UniProt Q9Y337): IC50 is < 1000 nM
